Hello, the source for this data is ChEMBL document CHEMBL1156597, in case you need it.

Listed here are compounds together with their documented GI50.
Test system: LoVo
Assay details: Cytotoxicity against human doxorubicin resistant LoVo cells after 48 hrs by SRB assay
Assay type: functional
Outcome measure: GI50 (nM)

INSERT INTO measurements (chemical_structure, target_entity, outcome_measure, result_unit, observed_measurement) VALUES
  ('C/C=C1\NC(=O)[C@H](Cc2ccccc2)NC(=O)[C@@H](C(C)C)NC(=O)[C@@H]([C@H](C)CC)NC(=O)[C@H](NC(=O)[C@H](NC(=O)[C@H](CCCN)NC(=O)[C@H]2CCCN2C(=O)[C@H](NC(=O)[C@H](CCC2CCCCC2)NC(=O)[C@@H](NC(=O)[C@H](NC(=O)CCCC(C)C)C(C)C)[C@@H](C)O)C(C)C)[C@H](C)CC)[C@H](C)OC(=O)[C@H](C(C)C)NC1=O', 'LoVo', 'GI50', 'nM', 114),
  ('C/C=C1\NC(=O)[C@H](Cc2ccccc2Cl)NC(=O)[C@@H](C(C)C)NC(=O)[C@@H]([C@H](C)CC)NC(=O)[C@H](NC(=O)[C@H](NC(=O)[C@H](CCCN)NC(=O)[C@H]2CCCN2C(=O)[C@H](NC(=O)[C@@H](NC(=O)[C@@H](NC(=O)[C@H](NC(=O)CCCC(C)C)C(C)C)[C@@H](C)O)C(C)C)C(C)C)[C@H](C)CC)[C@H](C)OC(=O)[C@H](C(C)C)NC1=O', 'LoVo', 'GI50', 'nM', 44.3),
  ('C/C=C1\NC(=O)[C@@H]2C[C@@H]3CCCC[C@@H]3N2C(=O)[C@@H](C(C)C)NC(=O)[C@@H]([C@H](C)CC)NC(=O)[C@H](NC(=O)[C@H](NC(=O)[C@H](CCCN)NC(=O)[C@H]2CCCN2C(=O)[C@H](NC(=O)[C@@H](NC(=O)[C@@H](NC(=O)[C@H](NC(=O)CC[C@@H](C)CC)C(C)C)[C@@H](C)O)C(C)C)C(C)C)[C@H](C)CC)[C@H](C)OC(=O)[C@H](C(C)C)NC1=O', 'LoVo', 'GI50', 'nM', 358);
